Target: human DP2 (Homo sapiens)
Construct: expressed in transfected cells; membranes prepared
Assay: DP-2 binding inhibition assay (3H-PGD2, membranes of DP2-expressing K562 cells)
Details: 4% HSA, read-out: EC50 (nM) 4% HSA
API: label(entry) gives y if the entry's EC50 is strictly smaller than 300 nM; on equality or larger values it gives n.

compound: O=C(NCCc1cccc(-c2ccccc2Cl)n1)c1ccc(Oc2cc3c(cc2Cl)C(C(=O)O)CCO3)cc1 (stereo not shown) [Example 221]
measurement target: human DP2 (Homo sapiens)
class name: n
//
compound: O=C(Nc1cnc(-c2cccc(Cl)c2)cn1)c1ccc(Oc2cc3c(cc2Cl)C(C(=O)O)CCO3)cc1 (stereo not shown) [Example 96]
measurement target: human DP2 (Homo sapiens)
class name: y
//
compound: O=C(Nc1ccc(-c2ccc(C(F)(F)F)cc2)nn1)c1ccc(Oc2cc3c(cc2Cl)C(C(=O)O)CCO3)cc1 (single isomer, unassigned; enantiomer 2) [Example 185]
measurement target: human DP2 (Homo sapiens)
class name: y
//
compound: COc1ccc(-c2cccc(CCNC(=O)c3ccc(Oc4cc5c(cc4Cl)C(C(=O)O)CCO5)cc3)n2)cn1 (stereo not shown) [Example 215]
measurement target: human DP2 (Homo sapiens)
class name: n
//
compound: O=C(Nc1nc(-c2cccc(Cl)c2)cs1)c1ccc(Oc2cc3c(cc2Cl)C(C(=O)O)CCO3)cc1 (stereo not shown) [Example 157]
measurement target: human DP2 (Homo sapiens)
class name: y
//
compound: O=C(Nc1cncc(-c2ccc(C(F)(F)F)cc2)n1)c1ccc(Oc2cc3c(cc2Cl)C(C(=O)O)CCO3)cc1 (stereo not shown) [Example 93]
measurement target: human DP2 (Homo sapiens)
class name: y
//
compound: O=C(Nc1ccnc(-c2ccc(Cl)cc2)n1)c1ccc(Oc2cc3c(cc2Cl)C(C(=O)O)CCO3)cc1 (stereo not shown) [Example 100]
measurement target: human DP2 (Homo sapiens)
class name: y
//
compound: N#Cc1cc2c(cc1Oc1ccc(C(=O)Nc3nnc(-c4ccc(Cl)cc4)s3)cc1)OCCC2C(=O)O (stereo not shown) [Example 204]
measurement target: human DP2 (Homo sapiens)
class name: n
//
compound: O=C(Nc1cccc(-c2cccc(Cl)c2)n1)c1ccc(Oc2cc3c(cc2Cl)C(C(=O)O)CCO3)cc1 (stereo not shown) [Example 34]
measurement target: human DP2 (Homo sapiens)
class name: y
//
compound: O=C(Nc1nc(-c2ccc(F)cc2F)cs1)c1ccc(Oc2cc3c(cc2Cl)C(C(=O)O)CCO3)cc1 (stereo not shown) [Example 155]
measurement target: human DP2 (Homo sapiens)
class name: y
//
compound: CSc1ccc(-c2ccc(NC(=O)c3ccc(Oc4cc5c(cc4Cl)C(C(=O)O)CCO5)cc3)nn2)cc1 (stereo not shown) [Example 64]
measurement target: human DP2 (Homo sapiens)
class name: n
//
compound: CC(C)Cc1cccc(NC(=O)c2ccc(Oc3cc4c(cc3Cl)C(C(=O)O)CCO4)cc2)n1 (stereo not shown) [Example 105]
measurement target: human DP2 (Homo sapiens)
class name: y
//
compound: O=C(Nc1nnc(-c2ccc(Cl)cc2)s1)c1ccc(Oc2cc3c(cc2Cl)C(C(=O)O)CCO3)cc1 (stereo not shown) [Example 149]
measurement target: human DP2 (Homo sapiens)
class name: n
//
compound: N#Cc1cc2c(cc1Oc1ccc(C(=O)Nc3ncc4cc(Cl)ccc4n3)cc1)OCCC2C(=O)O (stereo not shown) [Example 8]
measurement target: human DP2 (Homo sapiens)
class name: n
//
compound: O=C(Nc1nc2cc(Cl)ccc2o1)c1ccc(Oc2cc3c(cc2Cl)C(C(=O)O)CCO3)cc1 (stereo not shown) [Example 208]
measurement target: human DP2 (Homo sapiens)
class name: n
//
compound: O=C(Nc1cccc(-c2ccccc2)n1)c1ccc(Oc2cc3c(cc2Cl)C(C(=O)O)CCO3)cc1 (stereo not shown) [Example 27]
measurement target: human DP2 (Homo sapiens)
class name: y
//
compound: O=C(NCCc1cccnc1C1CC1)c1ccc(Oc2cc3c(cc2Cl)C(C(=O)O)CCO3)cc1 (stereo not shown) [Example 223]
measurement target: human DP2 (Homo sapiens)
class name: y
//
compound: O=C(Nc1ccc(-c2cccc(C(F)(F)F)c2)nn1)c1ccc(Oc2cc3c(cc2Cl)C(C(=O)O)CCO3)cc1 (stereo not shown) [Example 99]
measurement target: human DP2 (Homo sapiens)
class name: y
//
compound: O=C(Nc1ccc2c(Cl)cccc2n1)c1ccc(Oc2cc3c(cc2Cl)C(C(=O)O)CCO3)cc1 (stereo not shown) [Example 19]
measurement target: human DP2 (Homo sapiens)
class name: y
//
compound: O=C(Nc1ccn(-c2ccc(Cl)cc2)n1)c1ccc(Oc2cc3c(cc2Cl)C(C(=O)O)CCO3)cc1 (stereo not shown) [Example 175]
measurement target: human DP2 (Homo sapiens)
class name: y
//
compound: Cc1nc(NC(=O)c2ccc(Oc3cc4c(cc3Cl)C(C(=O)O)CCO4)cc2)cc(-c2ccc(Cl)cc2)n1 (stereo not shown) [Example 101]
measurement target: human DP2 (Homo sapiens)
class name: n
//
compound: O=C(Nc1ccc(-c2ccc(C(F)(F)F)cc2)nn1)c1ccc(Oc2cc3c(cc2Cl)C(C(=O)O)CCO3)cc1 (stereo not shown) [Example 98]
measurement target: human DP2 (Homo sapiens)
class name: y
//
compound: O=C(Nc1nc(-c2ccccc2)ns1)c1ccc(Oc2cc3c(cc2Cl)C(C(=O)O)CCO3)cc1 (stereo not shown) [Example 163]
measurement target: human DP2 (Homo sapiens)
class name: n
//
compound: O=C(Nc1cccc(-c2ccc(Cl)cc2)n1)c1ccc(Oc2cc3c(cc2Cl)C(C(=O)O)CCO3)cc1 (single isomer, unassigned; enantiomer 2) [Example 182]
measurement target: human DP2 (Homo sapiens)
class name: y
//
compound: O=C(NCCc1ncc(Cl)cc1Cl)c1ccc(Oc2cc3c(cc2Cl)C(C(=O)O)CCO3)cc1 (stereo not shown) [Example 138]
measurement target: human DP2 (Homo sapiens)
class name: n
//
compound: O=C(Nc1cccc(-c2ccc(Cl)cc2)n1)c1ccc(Oc2cc3c(cc2Cl)C(C(=O)O)CCO3)cc1 (stereo in doubt) [Example 206]
measurement target: human DP2 (Homo sapiens)
class name: n
//
compound: O=C(Nc1cnc2ccc(Cl)cc2n1)c1ccc(Oc2cc3c(cc2Cl)C(C(=O)O)CCO3)cc1 (stereo not shown) [Example 20]
measurement target: human DP2 (Homo sapiens)
class name: y
//
compound: COc1ccc(-c2cccc(NC(=O)c3ccc(Oc4cc5c(cc4Cl)C(C(=O)O)CCO5)cc3)n2)c(OC)n1 (stereo not shown) [Example 55]
measurement target: human DP2 (Homo sapiens)
class name: y

----------
The following compounds are shown together with reported EC50 values.
Target: human DP2 (Homo sapiens, UniProt Q9Y5Y4)
Construct: expressed in transfected cells; membranes prepared
Sequence (Q9Y5Y4 whole entry): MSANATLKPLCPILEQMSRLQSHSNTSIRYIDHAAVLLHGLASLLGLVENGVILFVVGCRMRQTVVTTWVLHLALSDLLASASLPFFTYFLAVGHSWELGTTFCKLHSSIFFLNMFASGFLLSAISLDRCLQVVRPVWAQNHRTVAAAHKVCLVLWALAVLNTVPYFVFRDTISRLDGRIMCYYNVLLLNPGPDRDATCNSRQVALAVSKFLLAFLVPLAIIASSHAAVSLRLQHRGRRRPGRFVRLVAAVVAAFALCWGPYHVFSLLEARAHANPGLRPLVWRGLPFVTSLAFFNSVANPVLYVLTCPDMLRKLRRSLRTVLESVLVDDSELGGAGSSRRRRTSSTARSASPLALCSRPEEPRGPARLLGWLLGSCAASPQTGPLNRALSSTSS
Assay: DP-2 binding inhibition assay (3H-PGD2, membranes of DP2-expressing K562 cells)
Details: 4% HSA, read-out: EC50 (nM) 4% HSA

compound: O=C(Nc1cccc(-c2ccc(Cl)cc2)n1)c1ccc(Oc2cc3c(cc2Cl)[C@@H](C(=O)O)CCO3)cc1 (single isomer, unassigned; enantiomer 1)
EC50 (nM): 3920

compound: CC(C)c1csc(NC(=O)c2ccc(Oc3cc4c(cc3Cl)C(C(=O)O)CCO4)cc2)n1 (stereo not shown)
EC50 (nM): 157

compound: COc1nc(C(F)(F)F)ccc1CCNC(=O)c1ccc(Oc2cc3c(cc2Cl)C(C(=O)O)CCO3)cc1 (stereo not shown)
EC50 (nM): 25.1

compound: COc1ccc(CCNC(=O)c2ccc(Oc3cc4c(cc3Cl)C(C(=O)O)CCO4)cc2)cn1 (stereo not shown)
EC50 (nM): 1370

----------
Target: human DP2 (Homo sapiens, UniProt Q9Y5Y4)
Construct: expressed in transfected cells; membranes prepared
Assay: DP-2 binding inhibition assay (3H-PGD2, membranes of DP2-expressing K562 cells)
Conditions: 4% HSA, read-out: EC50 (nM) 4% HSA

compound: O=C(Nc1cncc(-c2ccc(Cl)cc2)n1)c1ccc(Oc2cc3c(cc2Cl)C(C(=O)O)CCO3)cc1 (stereo not drawn) [Example 79]
measure unit: nM
EC50: 105
--
compound: O=C(Nc1ccc(-c2ccc(Cl)c(Cl)c2)nn1)c1ccc(Oc2cc3c(cc2Cl)C(C(=O)O)CCO3)cc1 (stereo not drawn) [Example 65]
measure unit: nM
EC50: 96.2
--
compound: O=C(Nc1ccnc(-c2ccc(Cl)cc2)n1)c1ccc(Oc2c(Cl)cc3c(c2Cl)OCCC3C(=O)O)cc1 (stereo not drawn) [Example 137]
measure unit: nM
EC50: 80.9
--
compound: O=C(Nc1ccn(-c2ccc(F)c(Cl)c2)n1)c1ccc(Oc2cc3c(cc2Cl)C(C(=O)O)CCO3)cc1 (stereo not drawn) [Example 167]
measure unit: nM
EC50: 46.8
--
compound: O=C(Nc1cccc(-c2cccc(C(F)(F)F)c2)n1)c1ccc(Oc2cc3c(cc2Cl)C(C(=O)O)CCO3)cc1 (stereo not drawn) [Example 112]
measure unit: nM
EC50: 46
--
compound: O=C(Nc1ccn(-c2ccc(F)c(F)c2)n1)c1ccc(Oc2cc3c(cc2Cl)C(C(=O)O)CCO3)cc1 (stereo not drawn) [Example 166]
measure unit: nM
EC50: 85.1
--
compound: CN(C)c1ncccc1CCNC(=O)c1ccc(Oc2cc3c(cc2Cl)C(C(=O)O)CCO3)cc1 (stereo not drawn) [Example 225]
measure unit: nM
EC50: 664
--
compound: O=C(Nc1ccc(-c2ccc(C(F)(F)F)cc2)cn1)c1ccc(Oc2cc3c(cc2Cl)C(C(=O)O)CCO3)cc1 (stereo not drawn) [Example 118]
measure unit: nM
EC50: 100
--
compound: O=C(Nc1nccc(-c2ccc(C(F)(F)F)cc2)n1)c1ccc(Oc2cc3c(cc2Cl)C(C(=O)O)CCO3)cc1 (stereo not drawn) [Example 130]
measure unit: nM
EC50: 139
--
compound: O=C(Nc1nc(-c2ccc(Cl)cc2)cs1)c1ccc(Oc2cc3c(cc2Cl)C(C(=O)O)CCO3)cc1 (stereo not drawn) [Example 152]
measure unit: nM
EC50: 45.3
--
compound: O=C(Nc1cccc(-c2ccc(Cl)c(F)c2)n1)c1ccc(Oc2cc3c(cc2Cl)C(C(=O)O)CCO3)cc1 (stereo not drawn) [Example 86]
measure unit: nM
EC50: 49.5
--
compound: Cc1ccc(-c2cccc(NC(=O)c3ccc(Oc4cc5c(cc4Cl)C(C(=O)O)CCO5)cc3)n2)cc1F (stereo not drawn) [Example 88]
measure unit: nM
EC50: 55.5
--
compound: O=C(Nc1ccc(-c2ccc(F)cc2F)nn1)c1ccc(Oc2cc3c(cc2Cl)C(C(=O)O)CCO3)cc1 (stereo not drawn) [Example 71]
measure unit: nM
EC50: 1510
--
compound: O=C(Nc1ccc(-c2cccc(C(F)(F)F)c2)nc1)c1ccc(Oc2cc3c(cc2Cl)C(C(=O)O)CCO3)cc1 (stereo not drawn) [Example 75]
measure unit: nM
EC50: 149
--
compound: CC(C)Oc1ncccc1CCNC(=O)c1ccc(Oc2cc3c(cc2Cl)C(C(=O)O)CCO3)cc1 (stereo not drawn) [Example 228]
measure unit: nM
EC50: 195
